molecular target: Aldose reductase (Sus scrofa, UniProt P80276); construct: Lenses isolated from porcine eyes (Tokyo Sibaura Zouki Co., Ltd., Japan) were homogenized; tissue Tokyo Sibaura Zouki Co., Ltd., Japan (porcine eyes); host or cells: porcine lens; assay: Aldose reductase inhibitory activity (in vitro); assay type: biochemical, porcine; conditions: crude enzyme from porcine lenses; D,L-glyceraldehyde 1.5 mM, NADPH 0.2 mM, pH 6.5, 37° C.; read-out: IC50 (aldose reductase inhibitory activity)
pIC50: −log10 of the molar value.
quantityMeasured: pIC50

O=C1CC2(C(=O)N1)C(=O)N(Cc1ccc(Br)cc1F)C(=O)c1ccc(Cl)n12 (stereo not shown): 7.46
O=C1CC2(C(=O)N1)C(=O)N(Cc1ccc(Cl)cc1F)C(=O)c1cccn12 (stereo not shown): 7.39

a. Cc1ccc(CN2C(=O)c3cccn3C3(CC(=O)NC3=O)C2=O)cc1 (stereo not shown)
b. O=C1CC2(C(=O)N1)C(=O)N(Cc1ccccc1Cl)C(=O)c1cccn12 (stereo not shown)
QUERY: Quick check, higher pIC50 between a and b ? Answer with the label corresponding to your selection.
RESULT: b
